Test: chemical genetic growth profiling, strain panel (AID 1159580);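 further: tested at 20 µM; growth read once vehicle control cultures reached saturation at 30 °C; 1 = growth at the plate median or of vehicle wells; lower values mean less growth of the strain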
Conditions: S. cerevisiae deletion strains, growth OD, locus YER155C, strain BEM2, active compounds read low
Screen size: about 5,500 compounds; about 2,000 (36%) were called active. Not shown: some 18% with an inconclusive outcome. This is one part of the list.
Measured normalized growth values are reported for all entries that follow.

Example cases with answers are listed next.
C[C@H]1O[C@@H](O[C@H]2[C@@H](O)C[C@H](O[C@H]3[C@@H](O)C[C@H](O[C@H]4CC[C@]5(C)C6C[C@@H](O)[C@]7(C)[C@@H](C8=CC(=O)OC8)CC[C@]7(O)C6CC[C@@H]5C4)O[C@@H]3C)O[C@@H]2C)C[C@H](O)[C@@H]1O (stereo partly specified)    0.986 (inactive)
COc1cc(C(=O)N2CCOCC2)cc(OC)c1OC    1.01 (inactive)
C[C@]12CC[C@H](O)C[C@H]1CCC1C2CC[C@]2(C)[C@@H](C3=CC(=O)OC3)[C@@H](O)C[C@]12O (stereo partly specified)    1 (inactive)
C[N+]1(C)C[C@H](O)[C@H](C(=O)[O-])C1    1 (inactive)
C[C@H]1O[C@@H](O[C@H]2[C@@H](O)C[C@H](O[C@H]3[C@@H](O)C[C@H](O[C@H]4CC[C@]5(C)C6CC[C@]7(C)[C@@H](C8=CC(=O)OC8)CC[C@]7(O)C6CC[C@@H]5C4)O[C@@H]3C)O[C@@H]2C)C[C@H](O)[C@@H]1O (stereo partly specified)    0.988 (inactive)
COc1cccc2c1CCC1=CC(=O)CC[C@@]12C    1 (inactive)
CC12CCC3C(CCC4(O)CC(O)CCC34/C=N/NC(N)=O)C1(O)CCC2C1=CC(=O)OC1 (stereo unspecified)    1 (inactive)
COC1=CC(=O)C=C(OC)C1=O    1 (inactive)
C[C@@H]1CCC2[C@](C)(CO)[C@@H](O)CC[C@]2(C)[C@@]12CC[C@@](CO)(CCO)O2 (stereo partly specified)    0.993 (inactive)
CC(=O)OC1CC[C@@]2(C)C(CCC3C2CC[C@]2(C)C(C4=CC(=O)OC4)C(OC(C)=O)CC32O)C1 (stereo partly specified)    0.996 (inactive)

### Prompt Quick one: normalized growth for "NC[C@H]1O[C@H](O[C@H]2[C@H](O)[C@@H](O[C@H]3O[C@H](CO)[C@@H](O)[C@H](N)[C@H]3O)[C@H](N)C[C@@H]2N)[C@H](N)[C@@H](O)[C@@H]1O" ?
### Response 0.994 (inactive)

### Prompt Next up: CCCCCC(O)C1C(=O)OC(C)C(O)/C=C/C=C/C=C/C=C/C=C(\C)C(O)CC(O)CC(O)CC(O)CC(O)CC(O)CC1O (stereo unspecified)
### Response 1.02 (inactive)

### Prompt Ok, now CC1=CC(=O)C2C(C)(C)CCC[C@]2(C)[C@@]1(O)CCc1ccoc1 (stereo partly specified)
### Response 0.989 (inactive)

### Prompt Would you mind doing "COc1cc(C(=O)O)cc(OC)c1OC" as well?
### Response 1.01 (inactive)

### Prompt Try the compound "CN(C)CC[C@H](c1ccc(Cl)cc1)c1ccccn1"
### Response 1 (inactive)

### Prompt Same thing, different compound: CC1(C)S[C@@H]2[C@H](NC(=O)C(C(=O)O)c3ccccc3)C(=O)N2[C@H]1C(=O)O (stereo partly specified)
### Response 0.991 (inactive)
